The reported measurements were obtained from the nanobody polyreactivity screen of Harvey et al. (2022).

test: yeast display, Sf9 membrane polyspecificity reagent, FACS + sequencing; frameworks hold sequencing errors
Observed property: polyreactivity (PSR sort gate)

QVQLVESGGGLVQAGGSLRLSCAASGSIFYQYAMGWYRQARGKERELVAAITWDGSRTYYADSVKGRFTISRDNAKNTVYLQMNSLKPEDTAVYYCNANLAWRRYDGTYNYWGQGSQVTVSS :: high polyreactivity
QVHLVESAVGLVQAGGSLRLSCAASASTFPSYAMGWYRQAPGKERELVAAINSGGGTNYADSVKGRFTISRDNAKNTVYLQMNSLKPEDTAVYYCAKSRYDYTKTEGGYWGQGTQVTVSS :: low polyreactivity
QVQHVESGGGLVQAGGSLRLSCAASGRIFNLYAMGWYRQAPGKERELVAAIRGRGTSTYYADSVKGRFTISSDNAKNTVFLQINSLKPEDTAVYYCAREGGYGPTLQDTSRYEYCGQGTQVTVSS :: low polyreactivity
QVQLVESGGGLVKAGGSLRLSCAASGFIYKFYAMGWYRQAPRKERELVAAINYSGGSTYYADSVKGRFTISRDNAKNTVYLKMNSLKPEDTAVFYCNALYTYGWYSDDYWGQGTQVTVSS :: high polyreactivity
QVQLVESGGGLVQAGGSLRLSCAASGNTLDYYAMGWYRQAPGKEREVVEGIDDRTSTNYADSVKGRFTISRDNAKYTVYLQMNSLKPEDTAVYYCNADDGTVNYTSYYSPAVTYDSWGQGTQVTVSS :: low polyreactivity

Lab note: next sequence to report on.
State its polyreactivity (PSR sort gate) for this sequence: QVQLVESGGGLVQAGGSLRLSCAASGFTFFKYAMGWYRQAPGKERELVAAISSSGGSTYYADSVKGRFTISRDNAKNTVYLQMNSLKPEDSAVYYCNRPAAVYFKLVTAYDYWGQGTQVTVSS
high polyreactivity

---

assay: yeast display, Sf9 membrane polyspecificity reagent, FACS + sequencing; frameworks hold sequencing errors
Observed property: polyreactivity (PSR sort gate)

Here are 8 sequences together with their reported answers.
QVQLVESGGGLVQAGGSLRLSCAASGYTFSGYAMGWYRQAPGKERELVAAISGSSTRTYYADSVKGRFTITRDYAKNTVYFQMNSLKPEDTAVYYCAARFRHGGPYKYGYWGHGTQVTVSS :: high polyreactivity
QVQLVESGVGLVQAGGSLRLSCAASGRIFHINAMGWYRQAPGKERELVATISGTDRTTYADSVKGRFTISRDNAKNTVYLQMNSLKPEDTAVYYCAAPTDFLFWEFDYWGQGTQVTVSS :: low polyreactivity
QVQLVESGGGLVQAGGSLRLSCAASGRTFIRYAMGWYRQAPRKEREMVAAISYSGGTTYYADSVKGRFTISRDNAKNTVYLQMNSLKPEDTAVYYCARAGGYPLSRYGYWGQGTQVTVSS :: high polyreactivity
QVQLVESGGGLVQAGGSLRLSCAASGRTFTYYAMGWYRQAPGKERELVARISSSGSTNYADSVKGRFTISRDNAKNTVYLQMNSLKPEDTAVYYCAARYWRGPRYDYWGQGTQVTVSS :: high polyreactivity
QVQLVESGGGLVQAGGSLRLSCAASGSTFDLYAMGWYRQAPGKERELVAAISSSGGRTYYADAVKGRFTISRDNAKNTVYLQMNSLKPEDTAVYDCAAVGYKYSRYDYWGQGTQVTVSS :: high polyreactivity
QVQLVESGGGLVQAGGSLRFSCAASVFTFYSYAMGSDSQSPGKESEFVAAINQTSGSTTYADSVKGRFTISRDYGKNTVYLKMISLKPEDTAVYYCNAYQYYERYDTYLFRYDYWGQGTQVTVSS :: low polyreactivity
QVQLVESGGGLVQAGGSLRLSCAASGSTSDINAMGWYRQARGKEWQLVAVITDSSNTDYADSVKGRFTISRDNAKNTVYLEMNSLKPEETAVYYCAADRDEPDPYDYWGPGTQVTVSS :: low polyreactivity
QVQLVESGGGLVQAGGSLRLSCAASGSTFGSYAMGWHRQAPGKERELVASITYSGDSSNYSDSVKGRFTLSRDNAKNTVYLQMNSLKPEDTAVYYCKARAVMTQYIQKRYDYWGQGTQVTVSS :: low polyreactivity

Parameter requested: polyreactivity (PSR sort gate). Apply to each item below.
1. QVQLVESRGGLVQAGGSLRLSCAASGITLYGYAMGWYRQAPGKERELVAAISRSGSSTYYADSVKGRFTISRDNAKNTVYVQMNSLKPEDTAVYYCNSEKYYLAYLLPFNYWGQGTQVTVSS
2. QVQLVESGGGVVQAGGSLRLSCAASGSTFVFYTMGWSRQAPGKEREFVASISGSGGSTYYADSVKGRFTISRDNAKNTVYLQMNSLKPEDTAVYYCAAGYPYYYWTPYYYWGQGTQVTVSS
3. QVQLVESGGGLVQAGGSLRLSCAASGSIFGFYDMGWYRQAPGKERELVAAITTGGSTYYADSVKGRFTISRDNAKNTVYLQMNSLKPEDTAVYYCAKERWFPYERNDYWGQGTQVTVSA
4. QVQLVESAGGLVQAGGSLRLSCAASGSIFPAYAMGWYRQAPGKERELVASITTGDRTYYADSVKGRFTISRDNAKNTVYLQMNSLKPEDTAVYYCAALYYVHYYSAHYPTLSRHEYWGPGTQVTVSS

high polyreactivity
high polyreactivity
low polyreactivity
high polyreactivity

---

test: yeast display, Sf9 membrane polyspecificity reagent, FACS + sequencing; frameworks hold sequencing errors
Observed property: polyreactivity (PSR sort gate)

QVQLVESGGGLVQAGGSLRLSCAASGFTFSTYAMGWYRQAPGKERELVAAISRSGGSTYYADSVKGRFTISRDNAKNTVYLQMNSLKPEDTAVYYCAADGLRRESSYYYWGQGTQVTVSS :: high polyreactivity
QVQLVESGGGLVQAGGSLRISCAASGFTSTYYAMGWYRPAPGTERELVAAITSSGTRTYYADSVKGRFTISRDIAKKTGYLQMNSLKPEDTAVYYCNASHRKGMYYWGLGTQVTVSS :: high polyreactivity
QVQLVESGGGLVQAGGSLRLSCAASGSIFTDNAMGWYRQAPGKERELVAGISYNGDNTYYADSVKGRFTISRDNAKNTVYLQMNSLKPEDTAVYYCAAADGIIESDYWGQGTQVTVSS :: low polyreactivity
QVQLVESGGGLVQAGGSLRLSCAASGSTLWYNAMGWYRQAPGKERELVASITSDGGSSTYADSVKGRFTISRDNAKNTVYLQMNSQKPEDTAVYYCAADWPIVQYDYWGQGTQVTVSS :: low polyreactivity

---

assay: yeast display, Sf9 membrane polyspecificity reagent, FACS + sequencing; frameworks hold sequencing errors
Observed property: polyreactivity (PSR sort gate)

Worked examples follow.
QVQLVESGGGLVQAGGSLRLSCAASGRIFWRNAMVWYRQAPGKERELVAAISGSGGSTSYADSVKGRFTISRDNAKNTVYLQMNSLKPEDTAVYYCAAKYYYNWHRQGYDYWGQGTQVTVSS :: high polyreactivity
QVQLVESGGGIVQAGGSLLLSCAASGSISFLYTMGWYRQAPGKERELVAAITGSTASTYYADSVKGRFTISRDNAKNTVYLQMNSLKPEDTAVYYCAAYWYAEGYWVSRDYWGQGTQVTVSS :: low polyreactivity
QVQLVESGGGLVQAGGSLRLSCAASGRTFEHYSMGWYRQAPGKEREFVAVIDSSDGSTYYADSVKGRFTISRDNAKNTVYLQMNSLKPEDTAVYYCLGGYYYLQYDYWGQGTQVTVSS :: low polyreactivity
QVQLVESGGGLVQAGGSLRLSCAASGSTFAYNVMGWYRQAPGKERELVAAITISGTSTYYADSVKGRFTISRDNAKNTVYLQMNSLKPEDTAVYYCAARRDRGRVKFYYWGQGTQVTVSS :: high polyreactivity
QVQLVESGGGLVQAGGSLRLSCAASGRIFYWYVMGWYRQAPGKERELVASISSGGGTNYADSVKGRFTISRDNAKNTVYLQMNSLKPEDTAVYYCAARAYPYYWTGQKQSRFGYWGQGTQVTVSS :: high polyreactivity
QVQLVESGGGLVQAGGSLRLSCAASGSIFYPYAMGWYRPAPGKERELVAGITGGGRTYYADSVKGRFTISRDNAKNTVYLQMNSLKPEDTAVFYCAAVDFVSYYIPFHYEYYWGQGTQVTVSS :: low polyreactivity

Record polyreactivity (PSR sort gate) per entry; entries follow.
1. QVQLVESGGGLVQAGGSLRLSCAASGRIFNPYAMGWYRQAPGKEREFVAAIRWSSGSTSYADSVKGRFTISRDNAKNTVYLQMNSLKPEDTAVYYCNTRSHSYYTLWGASRPRFDYWGQGTQVTVSS
2. QVQLVESGGGLVQAGGSLRLSCAASGRTFGVNAMGGYRQAPGKERELVAAISKRGGSTYYADSVKGRFTISRDNAKNTVYLQMNSLKPEDTAVYYCAKDQPHRGPMDYWGQGTQVTVSS
3. QVQLVESGGGLVQAGGSLRLSCAASGRTFVGNVMGWYRQAPGKERELVAAINRDASTNYADSVKGRFTISRDNAKNTVYLQMNSLKPEDTAVYYCATRRGFFDIFYGGYDYWGQGTQVTVSS

["high polyreactivity", "high polyreactivity", "low polyreactivity"]

For each of the items listed, what is its polyreactivity (PSR sort gate)?
1. QVQLVESGGGLVQAGGSLRLSCAASGSIFNSYAMGWYRQAPGKERELVAAISKRGGSTYYADSVKGRFTISRDNAKNTVYLQMNSLKPEDTAVYYCAAEYYYAGWSYSYDYWGQGTQVTVSS
2. QVQLVESGAGLVQAGGSLRLSCAASGSIFAWYGMGWYRQAPGQERELVAAISTAGSTNYADSVKGRFTISRDNAKNTVYLQMNSLKPEDTAVYYCAKISSWYYPERFDYWGQGTQVTVSS

1. high polyreactivity
2. low polyreactivity
